Attribution: patent US8017162B2

System: RAW264.7 cells
protocol-notes: NO production inhibition test (LPS, Griess Method)
Type: cell-based, mouse
condition-context: 100 μg/mL
Use Satisfied when the recorded NO in supernatant is no lower than 3 µM; use Not satisfied when it is lower.

Known results for compounds:
CCCCCCCCC/C=C/C(=O)CCc1ccc(O)c(OC)c1
Not satisfied
CCCCC/C=C/C(=O)CCc1ccc(O)c(OC)c1
Not satisfied
CCC[C@H](O)CC(=O)CCc1ccc(O)c(OC)c1
Satisfied
CCCCCCCCC[C@H](O)CC(=O)CCc1ccc(O)c(OC)c1
Satisfied
CCCCC[C@H](O)CC(=O)CCc1ccc(O)c(OC)c1
Not satisfied

Lab note: next compound to report on.
Exercise: Record CCCCCCC[C@H](O)CC(=O)CCc1ccc(O)c(OC)c1 ; criterion: NO in supernatant no lower than 3 µM. Met?
Solution: Satisfied
